experiment: Human HepG2 cell viability assay in 384 well format; assay type: toxicity, cell-based; set-up: dose 125 nL, time 70.5 hour; concentration not given beside the values; settings: HepG2 cells, read-out: Inhibition
Binary classification by cytotoxicity at 70.5 h, with 10% as an inclusive lower bound for Condition met; all other cases are Condition not met.

Is reported cytotoxicity at 70.5 h greater than or equal to 10% here: Cc1nc2c(c(N(C)Cc3ccccc3-n3cccn3)n1)CCNCC2
Condition met

Is reported cytotoxicity at 70.5 h greater than or equal to 10% here: CC(C)c1nccn1CC1CCCN1Cc1nc2ccccc2n1C (configuration not stated)
Condition not met

Is reported cytotoxicity at 70.5 h greater than or equal to 10% here: CC(C)(O)CN1CCN(C(=O)c2cc3ccccc3c(=O)[nH]2)CC1
Condition not met

Is reported cytotoxicity at 70.5 h greater than or equal to 10% here: CN(CCc1ccccn1)C(=O)Nc1cccnc1N1CCCC1
Condition met

Is reported cytotoxicity at 70.5 h greater than or equal to 10% here: CCn1ccc(NC(=O)C2CCC(=O)N2Cc2ccc(C)o2)n1 (configuration not stated)
Condition not met

Is reported cytotoxicity at 70.5 h greater than or equal to 10% here: O=C(c1ccco1)N1CCOC2(COCCN(c3ncccn3)C2)C1 (configuration not stated)
Condition not met

Is reported cytotoxicity at 70.5 h greater than or equal to 10% here: CS(=O)(=O)C1CCN(S(=O)(=O)c2ccc(F)c(F)c2)C1 (configuration not stated)
Condition not met

Is reported cytotoxicity at 70.5 h greater than or equal to 10% here: CN(C)S(=O)(=O)N1CCC(Oc2ccccn2)CC1
Condition not met

Is reported cytotoxicity at 70.5 h greater than or equal to 10% here: c1ccc(CCN2CCCC2c2cncc(Nc3nncs3)n2)cc1 (configuration not stated)
Condition met

Is reported cytotoxicity at 70.5 h greater than or equal to 10% here: Cc1csc(C2CCCCN2C(=O)CN(C)C(C)C)n1 (configuration not stated)
Condition met

Is reported cytotoxicity at 70.5 h greater than or equal to 10% here: O=C(Cn1c(=O)oc2ccccc21)NCC(O)c1ccc2c(c1)CCO2 (configuration not stated)
Condition not met

Is reported cytotoxicity at 70.5 h greater than or equal to 10% here: CCn1nc2c(cc1=O)CN(Cc1nc(-c3ccsc3)no1)CC2
Condition not met

* * *

Provide the recorded cytotoxicity at 70.5 h for the entries that follow.
test: Human HepG2 cell viability assay in 384 well format; format: toxicity, cell-based; parameters: dose 125 nL, time 70.5 hour; concentration not given beside the values; conditions: HepG2 cells, read-out: Inhibition
// note: answer is a bare numeric in %

Given COCCOc1ccc(NC(=O)N2CCCC2c2cccs2)cn1 (configuration not stated) , state its recorded cytotoxicity at 70.5 h.
-4.81

Given CCc1cc(CNC(=O)Nc2cc(F)ccc2N2CCCCC2)on1 , state its recorded cytotoxicity at 70.5 h.
-2.62

Given CC(C)N1CCC(NC(=O)NCc2cccnc2)C1 (configuration not stated) , state its recorded cytotoxicity at 70.5 h.
-1.38

Given Cc1nc(N2CCN3CCCCC3C2)nc2cc(S(C)(=O)=O)ccc12 (configuration not stated) , state its recorded cytotoxicity at 70.5 h.
0.525

Given c1cnnc(N2CCCC(NCc3nc(C4CC4)no3)C2)c1 (configuration not stated) , state its recorded cytotoxicity at 70.5 h.
-1.23

Given CCCS(=O)(=O)N(C)C(=O)CCc1ccsc1 , state its recorded cytotoxicity at 70.5 h.
0.207

Given NS(=O)(=O)CCN1CCOC(c2ccsc2)C1 (configuration not stated) , state its recorded cytotoxicity at 70.5 h.
1.05

Given CNC(=O)c1ccc2c(c1O)OC(C)(C)C2 , state its recorded cytotoxicity at 70.5 h.
-4.08

Given CNS(=O)(=O)c1ccc(CCC(=O)NCc2cccc(OC)c2)cc1 , state its recorded cytotoxicity at 70.5 h.
-0.152

Given N#Cc1ccc(N2CC3(CCN(c4nccs4)C3)C2)nc1 , state its recorded cytotoxicity at 70.5 h.
5.37

Given Cc1occc1C(=O)N1CCN2C[C@H](Oc3cccnc3)C[C@H]2C1 , state its recorded cytotoxicity at 70.5 h.
0.855

Given NC(=O)NC(=O)Cn1ccc2sccc2c1=O , state its recorded cytotoxicity at 70.5 h.
-5.03

* * *

Provide the recorded cytotoxicity at 70.5 h for the entries that follow.
assay: Human HepG2 cell viability assay in 384 well format; format: toxicity, cell-based; design: dose 125 nL, time 70.5 hour; concentration not given beside the values; settings: HepG2 cells, read-out: Inhibition

Given CNc1nc(N2CCN(C)C(CCO)C2)nc2c1CCC2 (configuration not stated) , state its recorded cytotoxicity at 70.5 h.
2.44%

Given COc1ccc(C(C)NC(=O)Nc2nnc(C)s2)cc1OC (configuration not stated) , state its recorded cytotoxicity at 70.5 h.
2.44%

Given O=C(c1ccsc1)N1CCC2(CC1)COCCN(Cc1ccncc1)C2 , state its recorded cytotoxicity at 70.5 h.
-7.46%

Given COCc1ncn2c1CN(S(=O)(=O)Cc1ccc(C)cc1)CC2 , state its recorded cytotoxicity at 70.5 h.
-10.2%

Given CCn1cc2c(n1)C(COCC1CC1)CN(c1ccc(C)nn1)C2 (configuration not stated) , state its recorded cytotoxicity at 70.5 h.
-16.7%

Given CC(C)C(O)CNC(=O)Nc1cnn(C(C)C)c1 (configuration not stated) , state its recorded cytotoxicity at 70.5 h.
-8.43%

Given O=C(CCc1ccc2c(c1)OCO2)N1CCCC(n2cccn2)C1 (configuration not stated) , state its recorded cytotoxicity at 70.5 h.
13.3%

Given CCc1ccsc1C(=O)N1CCN(CC(O)CC)CC1 (configuration not stated) , state its recorded cytotoxicity at 70.5 h.
6.44%

Given Cc1cc(N(C)Cc2ncc(-c3ccccc3C(=O)O)s2)ncn1 , state its recorded cytotoxicity at 70.5 h.
16.7%

Given Cc1ccc(NC2CCN(C(=O)c3ccnc(N(C)C)c3)CC2)nn1 , state its recorded cytotoxicity at 70.5 h.
-22.6%

Given CSc1cc2c(cc1NC(=O)NCCn1ccnc1)OCCO2 , state its recorded cytotoxicity at 70.5 h.
-3%

Given Cc1noc(C)c1C1CCCN1C(=O)CN1CC2(CCNCC2)OC1=O (configuration not stated) , state its recorded cytotoxicity at 70.5 h.
19.7%

* * *

test: Human HepG2 cell viability assay in 384 well format; format: toxicity, cell-based; set-up: dose 125 nL, time 70.5 hour; concentration not given beside the values; conditions: HepG2 cells, read-out: Inhibition
EXPERIMENTAL READOUT: cytotoxicity at 70.5 h (%)
// note: answer is a bare numeric in %

Given Cc1nn(C)c(Cl)c1C1CCCN1CC(=O)NC1CCCC1 (stereo unspecified) , state its recorded cytotoxicity at 70.5 h.
2.37

Given CS(=O)(=O)CCN1CCc2c(ncn2C2CC2)C1 , state its recorded cytotoxicity at 70.5 h.
-3.42

Given CCc1nc2n(n1)CC(NCCc1cccs1)CC2 (stereo unspecified) , state its recorded cytotoxicity at 70.5 h.
3.55

Given Cc1nn(C)c(Cl)c1C1CCCN1C(=O)c1ccc(C(N)=O)cn1 (stereo unspecified) , state its recorded cytotoxicity at 70.5 h.
54.9

Given CCOc1cccc(CNCc2ccc(NC(=O)NC(C)C)cc2)c1 , state its recorded cytotoxicity at 70.5 h.
4.86

Given O=C(Nc1ccccc1N1CCOC1=O)N1CCSCC1 , state its recorded cytotoxicity at 70.5 h.
14.3

* * *

assay: Human HepG2 cell viability assay in 384 well format; type: toxicity, cell-based; parameters: dose 125 nL, time 70.5 hour; concentration not given beside the values; settings: HepG2 cells, read-out: Inhibition
Provide the recorded cytotoxicity at 70.5 h for the entries that follow.
// note: answer is a bare numeric in %

Given CCc1nnc(CN2CCC(c3nc4cc(Cl)ccc4o3)CC2)o1 , state its recorded cytotoxicity at 70.5 h.
-11.3

Given CC(O)CN(C)C(=O)CCNC(=O)OC(C)(C)C (centres undefined) , state its recorded cytotoxicity at 70.5 h.
-3.37

Given Cn1cnc2c1CCN(CCS(=O)(=O)c1ccc(Cl)cc1)C2 , state its recorded cytotoxicity at 70.5 h.
-5.54

Given O=C(NCc1cccnc1-n1cccn1)C1CC(=O)N(CC2CC2)C1 (centres undefined) , state its recorded cytotoxicity at 70.5 h.
-13.2

Given CN(C)CC1(O)CCN(C(=O)c2cnc(CN3CCCC3)s2)C1 (centres undefined) , state its recorded cytotoxicity at 70.5 h.
0.326

Given N#Cc1cccc(N2CCC3(CCC(=O)N(CC4CCCO4)C3)CC2)n1 (centres undefined) , state its recorded cytotoxicity at 70.5 h.
0.613

Given COCc1nc(C(=O)N2CCCC(n3ccnc3C(C)C)C2)cs1 (centres undefined) , state its recorded cytotoxicity at 70.5 h.
-12.2

Given CC(=O)NCc1nnn2c1CN(c1ncccn1)CCC2 , state its recorded cytotoxicity at 70.5 h.
-7.48

Given C1CC(c2nnc(CN3CCCC3c3noc(C4CC4)n3)o2)C1 (centres undefined) , state its recorded cytotoxicity at 70.5 h.
-7.54

Given O=C(NCCc1ccccc1)C1CCC(Cn2cnnn2)CC1 (centres undefined) , state its recorded cytotoxicity at 70.5 h.
-2.34

Given CC(NC(=O)CCCOc1cccc(F)c1)c1ccncc1 (centres undefined) , state its recorded cytotoxicity at 70.5 h.
-4.8

Given CCC[C@H]1CN(c2cncc(C(=O)N3CCCCC3)n2)C[C@@H]1N(C)C , state its recorded cytotoxicity at 70.5 h.
-3.35

Given O=C1O[C@@H]2CN(c3ccc(Cl)cn3)C[C@@H]2N1CCc1ccc(F)cc1 , state its recorded cytotoxicity at 70.5 h.
-8.87

Given O=C(COc1cccc(Cl)c1)N1CCOCC(O)(CN2CCCC2)C1 (centres undefined) , state its recorded cytotoxicity at 70.5 h.
-3.79

Given CC(C)CN1CCC2(CC(C(=O)NCc3cccnc3)=NO2)C1 (centres undefined) , state its recorded cytotoxicity at 70.5 h.
-5.8

Given c1ncn(CC2CCCN(Cc3nc(-c4ccoc4)no3)C2)n1 (centres undefined) , state its recorded cytotoxicity at 70.5 h.
-10.5

Given Cc1cc(C)cc(OCCNC(=O)C(C)Sc2nncn2C)c1 (centres undefined) , state its recorded cytotoxicity at 70.5 h.
-10.3

Given CCS(=O)(=O)N(C)CCCNCc1c(C)nn(C)c1N(C)C , state its recorded cytotoxicity at 70.5 h.
-2.24

Given O=C(CN1CCCC1Cn1cncn1)Nc1cccnc1 (centres undefined) , state its recorded cytotoxicity at 70.5 h.
-7.61

Given Cc1ncsc1C(=O)N1CCCC1c1c(C)nn(C)c1C (centres undefined) , state its recorded cytotoxicity at 70.5 h.
-1.63

Given CC(C)c1nn(C)c(N(C)C)c1CNC1CCOc2ccccc21 (centres undefined) , state its recorded cytotoxicity at 70.5 h.
7.29

Given CCOc1ccc(NC(C)C(=O)NCCc2cccs2)cc1CO (centres undefined) , state its recorded cytotoxicity at 70.5 h.
-3.5

Given Cc1cc(NC(=O)C(c2cccc(F)c2)N2CCOCC2)sn1 (centres undefined) , state its recorded cytotoxicity at 70.5 h.
8.13

Given Cc1ccc(-c2cc(CNC(=O)NC3CCCCNC3=O)on2)cc1 (centres undefined) , state its recorded cytotoxicity at 70.5 h.
-8.17

Hello, the source for this data is ChEMBL document CHEMBL3507680, in case you need it.
